# assay.notes: Biodistribution in BALB/c nude mice bearing A431-CCK2R/A431-mock xenografts
# Type: in vivo
# test.settings: female, athymic BALB/c nude, mouse, A431-CCK2R xenograft / blood, iv, 20 pmol, total radioactivity, A431-CCK2R xenograft, BALB/c nude mice, ~20 pmol, 4 h p.i. (indium-111 or lutetium-177), mean ± SD n = 4; read-out: tumor-to-organ ratio: blood
# Description: The overall biodistribution and tumor targeting properties of selected radiolabeled peptides were evaluated in female athymic BALB/c nude mice (Charles River, Sulzfeld, Germany, age of 7 to 9 weeks). […] The tumors and other tissues (blood, lung, heart, muscle, spleen, intestine, liver, kidney, stomach, and pancreas) were dissected, weighed, and the radioactivity measured in the γ-counter. […]
Where a SMILES comes first, the peptide text is derived from it. [ ]: non-standard residue; d: D form. The star is where a group is joined. DOTA = O=C(O)CN1CCN(CC(=O)O)CCN(CC(=O)*)CCN(CC(=O)O)CC1; 1Nal = N[C@@H](Cc1cccc2ccccc12)C(=O)O; NMeNle = CCCC[C@H](NC)C(=O)O
// tissue to tissue ratio at 4 h lookup, one value per entry
Provide a numeric answer; units are not to be included.

Example molecules with recorded tissue to tissue ratio at 4 h:
[
  {
    "molecule": "CCCC[C@@H](C(=O)N[C@@H](CC(=O)O)C(=O)N[C@@H](Cc1cccc2ccccc12)C(N)=O)N(C)C(=O)[C@H](Cc1c[nH]c2ccccc12)NC(=O)CNC(=O)[C@H](Cc1ccc(O)cc1)NC(=O)[C@H](C)NC(=O)[C@@H](CCCCN)NC(=O)CN1CCN(CC(=O)O)CCN(CC(=O)O)CCN(CC(=O)O)CC1 [[^111In]In-DOTA-[DLys^1]MGS5, metal not drawn] ({DOTA}-[dK]AYGW[NMeNle]D[1Nal]-NH2)",
    "test.value": 176
  },
  {
    "molecule": "CCCC[C@@H](C(=O)N[C@@H](CC(=O)O)C(=O)N[C@@H](Cc1ccc2ccccc2c1)C(N)=O)N(C)C(=O)[C@H](Cc1c[nH]c2ccccc12)NC(=O)CNC(=O)[C@H](Cc1ccc(O)cc1)NC(=O)[C@H](C)NC(=O)[C@@H](CCC(=O)O)NC(=O)CN1CCN(CC(=O)O)CCN(CC(=O)O)CCN(CC(=O)O)CC1 [[^111In]In-DOTA-[2Nal^8]MGS5, metal not drawn]",
    "test.value": 399
  },
  {
    "molecule": "CCCC[C@@H](C(=O)N[C@@H](CC(=O)O)C(=O)N(C)[C@@H](Cc1cccc2ccccc12)C(N)=O)N(C)C(=O)[C@H](Cc1c[nH]c2ccccc12)NC(=O)CNC(=O)[C@H](Cc1ccc(O)cc1)NC(=O)[C@H](C)NC(=O)[C@@H](CCC(=O)O)NC(=O)CN1CCN(CC(=O)O)CCN(CC(=O)O)CCN(CC(=O)O)CC1 [[^111In]In-DOTA-[(N-Me)1Nal^8]MGS5, metal not drawn]",
    "test.value": 281
  }
]

Attention now turns to another entry.
For reference, reported tissue to tissue ratio at 4 h for CCCC[C@@H](C(=O)N[C@@H](CC(=O)O)C(=O)N[C@@H](Cc1cccc2ccccc12)C(=O)NC)N(C)C(=O)[C@H](Cc1c[nH]c2ccccc12)NC(=O)CNC(=O)[C@H](Cc1ccc(O)cc1)NC(=O)[C@H](C)NC(=O)[C@@H](CCC(=O)O)NC(=O)CN1CCN(CC(=O)O)CCN(CC(=O)O)CCN(CC(=O)O)CC1 [[^111In]In-DOTA-MGS5[NHCH3], metal not drawn] stands at 69.9
